Experimental system: cathepsin D isolated from the human liver (Homo sapiens)
Construct: cathepsin D isolated from the human liver (Sigma-Aldrich); purchased Sigma-Aldrich; host or cells: human liver (tissue-derived, not recombinant)
Sequence (P07339 65-161 limits assumed): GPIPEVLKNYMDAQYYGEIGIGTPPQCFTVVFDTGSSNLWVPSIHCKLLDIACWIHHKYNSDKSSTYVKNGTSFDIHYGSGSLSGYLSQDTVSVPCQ
Sequence (P07339 169-412 limits assumed): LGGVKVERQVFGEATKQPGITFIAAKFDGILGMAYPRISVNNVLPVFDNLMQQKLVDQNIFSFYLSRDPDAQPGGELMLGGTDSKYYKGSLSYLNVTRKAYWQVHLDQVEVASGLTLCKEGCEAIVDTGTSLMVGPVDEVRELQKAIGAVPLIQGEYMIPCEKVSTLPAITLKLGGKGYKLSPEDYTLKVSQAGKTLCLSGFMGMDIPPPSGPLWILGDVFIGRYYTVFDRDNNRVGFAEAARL
Test name: In-vitro fluorescence assay for identification of cathepsin D inhibitors
Type: biochemical
Assay context: human liver cathepsin D 1.4 nM, pH 5.5; read-out: CatD assay IC50-(M)
Observable: IC50 (M)

{"columns": ["Compound structure string", "IC50, M"],
 "data": [
  ["CC[C@H](C)[C@H](NC(=O)C[C@H](O)[C@H](Cc1ccccc1)NC(=O)[C@@H](NC(=O)Cc1cccc(OCCN)c1)[C@@H](C)CC)C(=O)N[C@H](C(=O)O)C(C)C", "4.8e-07"]
]}

I. CC[C@H](C)[C@H](NC(=O)C[C@H](O)[C@H](Cc1ccccc1)NC(=O)[C@@H](NC(=O)C(CC)(CC)CC)C(C)C)C(=O)N[C@H](C(=O)O)C(C)C
II. CC[C@H](C)[C@H](NC(=O)C[C@H](O)[C@H](Cc1ccccc1)NC(=O)[C@@H](NC(=O)Cc1ccc(OC)cc1)C(C)C)C(=O)N[C@H](C(=O)O)C(C)C
III. CC[C@H](C)[C@H](NC(=O)C[C@H](O)[C@H](Cc1ccccc1)NC(=O)[C@@H](NC(=O)[C@H](CC(C)C)NC(=O)CC(C)C)C(C)C)C(=O)NC(C)(C)CCO
IV. CC[C@H](C)[C@H](NC(=O)C[C@H](O)[C@H](Cc1ccccc1)NC(=O)[C@@H](NC(=O)Cc1ccc2ccccc2c1)C(C)C)C(=O)N[C@H](C(=O)O)C(C)C
In this exercise, place the 4 compounds in ascending sequence of their recorded IC50. Please, when replying, give the labels in the order that was requested.
III, IV, II, I
